Recorded measurements of Vd, one per entry
assay: Volume of distribution at steady state in monkey after iv administration
Type: ADME, organism-based
condition: macaca, in vivo, read-out: Vdss
Numeric answer plus unit only.

Worked examples, 6 compounds total:
Bench note: what Vd did `Cn1cc(/C=C2/C(=O)N3C(C(=O)O)=CS[C@H]23)nn1` show? 0.27 L/kg

What value of Vd has been recorded for this entry: CC(C)n1c(/C=C/C(O)CC(O)CC(=O)O)c(-c2ccc(F)cc2)c2ccccc21 (configuration not stated) 3.7 L/kg

Query (compound): CO[C@@]1(NC(=O)C(C(=O)[O-])c2ccc(O)cc2)C(=O)N2C(C(=O)[O-])=C(CSc3nnnn3C)CO[C@@H]21.[Na+].[Na+] (some centres not stated) [MOXALACTAM DISODIUM] ; field requested: Vd 0.16 L/kg

// lookup Vd for `COC(=O)[C@H]1[C@@H](OC(=O)c2ccccc2)C[C@@H]2CC[C@H]1N2C` 7.4 L/kg

Which Vd value is on record for `CC(=N)N1CC[C@H](SC2=C(C(=O)O)N3C(=O)[C@H]([C@@H](C)O)[C@H]3C2)C1` ? 0.3 L/kg

Any idea what Vd was measured for `CO/N=C(\C(=O)N[C@@H]1C(=O)N2C(C(=O)O)=C(CSc3nc(=O)c(=O)[nH]n3C)CS[C@H]12)c1csc(N)n1` ? 0.11 L/kg

# next compound below
Dear colleague, I am looking for the recorded Vd of the following compound: `CO[C@@]1(NC(=O)CSC(F)F)C(=O)N2C(C(=O)O)=C(CSc3nnnn3CCO)CO[C@@H]21` 0.3 L/kg

---

assay: Clearance in monkey after iv administration
Type: ADME, organism-based
condition: macaca, in vivo
Would you mind labelling by clearance? At or over 7 mL/min/kg is class 1, under is class 0.

Illustrative cases are given below, each with its answer.
Would you say `O=c1[nH]cnc2c1ncn2[C@H]1CC[C@@H](CO)O1` shows clearance at minimum 7 mL/min/kg? class 1

Decide: clearance of `CO/N=C(\C(=O)N[C@@H]1C(=O)N2C(C(=O)O)=C(CSc3nc(C)c(CC(=O)O)s3)CS[C@H]12)c1csc(N)n1` >= 7 mL/min/kg? class 0

API: above_or_equal(metric=clearance, cutoff=7 mL/min/kg) for item `C[C@@H]1[C@H](O)[C@@H](C)/C=C/C=C/C=C/C=C/C=C/C=C/C=C/[C@H](O[C@@H]2O[C@H](C)[C@@H](O)[C@H](N)[C@@H]2O)C[C@@H]2O[C@](O)(C[C@@H](O)C[C@@H](O)[C@H](O)CC[C@@H](O)C[C@@H](O)CC(=O)O[C@H]1C)C[C@H](O)[C@H]2C(=O)O` class 0

Does clearance meet or surpass 7 mL/min/kg for `Cc1cn([C@H]2C[C@H](N=[N+]=[N-])[C@@H](CO)O2)c(=O)[nH]c1=O` ? class 1

Others:
Form field: clearance at least 7 mL/min/kg? Entry: CC#CCC(C)[C@H](O)/C=C/[C@@H]1[C@H]2C/C(=C/CCCC(=O)O)C[C@H]2C[C@H]1O (stereo not given in full) class 1

Is clearance for `CO[C@@]1(NC(=O)CSCC#N)C(=O)N2C(C(=O)O)=C(CSc3nnnn3C)CS[C@@H]21` at or above 7 mL/min/kg? class 0

Please check the record COCCc1ccc(OCC(O)CNC(C)C)cc1 (stereo not given) and state if its clearance is at or above 7 mL/min/kg. class 1

Hello, I need to know if `NCC1(CC(=O)O)CCCCC1` has measured clearance not below 7 mL/min/kg. Thanks! class 0

Determine whether measured clearance meets or exceeds 7 mL/min/kg for `NC1(C(=O)O)CC1` class 0

Is clearance at least 7 mL/min/kg? Consider O=[N+]([O-])O[C@H]1CO[C@H]2[C@@H]1OC[C@H]2O[N+](=O)[O-] [ISOSORBIDE DINITRATE] class 1

Answer whether clearance of `CCOC(=O)C1(c2ccccc2)CCN(C)CC1` is greater than or equal to 7 mL/min/kg. class 0

Determine whether measured clearance meets or exceeds 7 mL/min/kg for `Cc1cccc(C)c1NC(=O)NCCCNC(C)C` class 1

Hello, I need to know if `CC(C)(C)S(=O)(=O)C[C@@H](Cc1ccccc1)C(=O)N[C@@H](Cc1cnc[nH]1)C(=O)N[C@@H](CC1CCCCC1)[C@@H](O)[C@@H](O)C1CC1` has measured clearance not below 7 mL/min/kg. Thanks! class 1

---

assay: Volume of distribution at steady state in rat after iv administration
Assay type: ADME, organism-based
condition: in vivo
observation_type: Vdss (L/kg)
Give your result in L/kg as a bare value.

Recorded Vdss, per entry:
Endpoint output: Vdss of `C[C@@H]1[C@H](O)[C@@H](C)/C=C/C=C/C=C/C=C/C=C/C=C/C=C/[C@H](O[C@@H]2O[C@H](C)[C@@H](O)[C@H](N)[C@@H]2O)C[C@@H]2O[C@](O)(C[C@@H](O)C[C@@H](O)[C@H](O)CC[C@@H](O)C[C@@H](O)CC(=O)O[C@H]1C)C[C@H](O)[C@H]2C(=O)O` . Value? 2.3

Vdss for `CN1CCC[C@H]1c1cccnc1` ? 4.7

Look at this molecule and give its reported Vdss. `C#C[C@]1(O)CC[C@H]2[C@@H]3CCc4cc(O)ccc4[C@H]3[C@@H](OC)C[C@@]21C` 1.4

Would you mind telling me what Vdss value was observed for `N=C(N)c1ccc(C(=O)N[C@@H](Cc2ccc(O)cc2)C(=O)N2CCC(OCC(=O)O)CC2)cc1` ? 0.24

Can you share its Vdss? I mean this molecule: `C#C[C@]1(O)CC[C@H]2[C@@H]3CCc4cc(O)ccc4[C@H]3CC[C@@]21C` 73

Find the recorded Vdss belonging to `CC[C@]1(O)C[C@@H]2CN(CCc3c([nH]c4ccccc34)[C@@](C(=O)OC)(c3cc4c(cc3OC)N(C)[C@H]3[C@@](O)(C(=O)OC)[C@H](OC(C)=O)[C@]5(CC)C=CCN6CC[C@]43[C@@H]65)C2)C1` and report it. 12

Can you share its Vdss? I mean this molecule: O=[N+]([O-])O[C@H]1CO[C@H]2[C@@H]1OC[C@H]2O[N+](=O)[O-] [ISOSORBIDE DINITRATE] 4.9

Record request: Vdss value, item `CCCC(CCC)C(=O)O` 0.66

Continuing:
Please report the recorded Vdss for `Cc1nc(=O)c(C#N)c(NCc2cccnc2)[nH]1` . 3.3

What measured Vdss goes with `N[C@@H](Cc1ccc(O)c(O)c1)C(=O)O` ? 9.8

What value of measured Vdss is listed for `CC[C@]1(O)C[C@H]2CN(CCc3c([nH]c4ccccc34)[C@@](C(=O)OC)(c3cc4c(cc3OC)N(C=O)[C@H]3[C@@](O)(C(=O)OC)[C@H](OC(C)=O)[C@]5(CC)C=CCN6CC[C@]43[C@@H]65)C2)C1` ? 0.41

Query: Vdss; subject: CC1(C)O[C@@H]2C[C@H]3[C@@H]4C[C@H](F)C5=CC(=O)C=C[C@]5(C)[C@H]4[C@@H](O)C[C@]3(C)[C@]2(C(=O)CO)O1 [FLUNISOLIDE] 3

What does the data say about its Vdss? Entry: CN(C)C(=O)CCSC(SCCC(=O)O)c1cccc(/C=C/c2ccc3ccc(Cl)cc3n2)c1 (centres undefined) 0.59

Given `COC(=O)[C@H]1[C@@H](OC(=O)c2ccccc2)C[C@@H]2CC[C@H]1N2C` , state its recorded Vdss. 16

---

Listed next: entries and their corresponding clearance.
assay: Clearance in dog after iv administration
Assay type: ADME, organism-based, Canis lupus familiaris
condition: in vivo

Look up clearance for this compound: C[C@@H](O)[C@H]1C(=O)N2C(C(=O)[O-])=C(SC3Cn4cnc[n+]4C3)[C@H](C)[C@H]12 (some centres undefined) 0.372 L/h/kg

Which value of clearance has been reported for CN(Cc1cnc2nc(N)nc(N)c2n1)c1ccc(C(=O)N[C@@H](CCC(=O)O)C(=O)O)cc1 [METHOTREXATE] in the records? 0.072 L/h/kg

# input compound: `C[C@@H](O)[C@H]1C(=O)N2C(C(=O)O)=C(S[C@@H]3CN[C@H](C(=O)N(C)C)C3)[C@H](C)[C@H]12` ; wanted: its clearance 0.24 L/h/kg

Suppose we examine the compound `c1ccc(C2(N3CCCCC3)CCCCC2)cc1` ; what clearance value has been reported? 3 L/h/kg

Any idea what its clearance is? The compound is O=C(OC1C[C@@H]2CC3C[C@@H](C1)N2CC3O)c1c[nH]c2ccccc12 (some centres undefined) 1.62 L/h/kg

Next:
Entry CN(C)CCCC1(c2ccc(F)cc2)OCc2cc(C#N)ccc21 (centres undefined) has what clearance? 0.84 L/h/kg

Which value of clearance has been reported for `C[C@@H]1[C@H](O)[C@@H](C)/C=C/C=C/C=C/C=C/C=C/C=C/C=C/[C@H](O[C@@H]2O[C@H](C)[C@@H](O)[C@H](N)[C@@H]2O)C[C@@H]2O[C@](O)(C[C@@H](O)C[C@@H](O)[C@H](O)CC[C@@H](O)C[C@@H](O)CC(=O)O[C@H]1C)C[C@H](O)[C@H]2C(=O)O` in the records? 0.006 L/h/kg

Could you tell me which clearance is on file for `CO/N=C(\C(=O)N[C@@H]1C(=O)N2C(C(=O)O)=C(CSc3nc(C)c(CC(=O)O)s3)CS[C@H]12)c1csc(N)n1` ? 0.246 L/h/kg

Can you look up the measured clearance of O=C(c1ccccc1)c1ccc2n1CCC2C(=O)O (centres undefined) for me? 0.078 L/h/kg

Item `CC[C@]1(O)C[C@@H]2CN(CCc3c([nH]c4ccccc34)[C@@](C(=O)OC)(c3cc4c(cc3OC)N(C)[C@H]3[C@@](O)(C(=O)OC)[C@H](OC(C)=O)[C@]5(CC)C=CCN6CC[C@]43[C@@H]65)C2)C1` has what recorded clearance? 1.32 L/h/kg

Reference source for all entries: ChEMBL document CHEMBL1614629
